Hey, just so you know, these numbers are from paper PMC4377982.

- Tested On: human α7 nicotinic acetylcholine receptor (α7 nAChR) (Homo sapiens)
- Construct: human α7 nAChR transfected in GH4C1 cells
- Sequence (P36544 23-502): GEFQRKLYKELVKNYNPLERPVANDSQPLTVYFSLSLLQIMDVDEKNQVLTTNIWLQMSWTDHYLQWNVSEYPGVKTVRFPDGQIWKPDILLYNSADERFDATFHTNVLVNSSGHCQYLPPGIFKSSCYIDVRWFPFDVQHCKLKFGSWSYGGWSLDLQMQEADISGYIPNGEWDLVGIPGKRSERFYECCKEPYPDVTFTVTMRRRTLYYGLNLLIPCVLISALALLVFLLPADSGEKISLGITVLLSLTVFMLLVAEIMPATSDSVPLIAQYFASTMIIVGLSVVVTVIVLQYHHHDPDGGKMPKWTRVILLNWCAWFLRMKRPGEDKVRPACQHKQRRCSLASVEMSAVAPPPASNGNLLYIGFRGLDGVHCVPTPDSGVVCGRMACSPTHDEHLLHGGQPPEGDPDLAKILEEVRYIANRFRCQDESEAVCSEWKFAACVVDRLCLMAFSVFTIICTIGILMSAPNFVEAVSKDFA
- Test Summary: radioligand competition with on GH4C1 cells; agonism also shown by Ca2+ imaging in Neuro2a cells with PNU120596 (EC50 […])
pIC50: −log10 of the molar value.
Endpoint Label: pIC50

>>> measured_result("C[N+](C)(C)[C@@H](Cc1c[nH]c2cc(Br)ccc12)C(=O)[O-]")
4.64
